IC50, DNA repair nuclease/redox regulator APEX1 (Homo sapiens, UniProt P27695): measured values
Give me the value, and tack the unit on after it.

Request: Which measured IC50 value corresponds to O=C(O)C1=CC(=C(c2ccc(O)c(C(=O)O)c2)c2ccc(O)c(C(=O)O)c2)C=CC1=O ?
Result: 10 µM

Let us examine a further case.
Request: Which measured IC50 value corresponds to Nc1c(S(=O)(=O)O)cc(Nc2ccc(Nc3nc(Cl)nc(Nc4ccc(S(=O)(=O)O)cc4)n3)c(S(=O)(=O)O)c2)c2c1C(=O)c1ccccc1C2=O ?
Result: 0.25 µM
